Here, each record is paired with measured Kd data.
ASSAYED SYSTEM: FGFR2 (Homo sapiens, UniProt P21802)
Construct: made in house; host or cells: E. coli (BL21-derived), T7 phage
Sequence (P21802 22-821): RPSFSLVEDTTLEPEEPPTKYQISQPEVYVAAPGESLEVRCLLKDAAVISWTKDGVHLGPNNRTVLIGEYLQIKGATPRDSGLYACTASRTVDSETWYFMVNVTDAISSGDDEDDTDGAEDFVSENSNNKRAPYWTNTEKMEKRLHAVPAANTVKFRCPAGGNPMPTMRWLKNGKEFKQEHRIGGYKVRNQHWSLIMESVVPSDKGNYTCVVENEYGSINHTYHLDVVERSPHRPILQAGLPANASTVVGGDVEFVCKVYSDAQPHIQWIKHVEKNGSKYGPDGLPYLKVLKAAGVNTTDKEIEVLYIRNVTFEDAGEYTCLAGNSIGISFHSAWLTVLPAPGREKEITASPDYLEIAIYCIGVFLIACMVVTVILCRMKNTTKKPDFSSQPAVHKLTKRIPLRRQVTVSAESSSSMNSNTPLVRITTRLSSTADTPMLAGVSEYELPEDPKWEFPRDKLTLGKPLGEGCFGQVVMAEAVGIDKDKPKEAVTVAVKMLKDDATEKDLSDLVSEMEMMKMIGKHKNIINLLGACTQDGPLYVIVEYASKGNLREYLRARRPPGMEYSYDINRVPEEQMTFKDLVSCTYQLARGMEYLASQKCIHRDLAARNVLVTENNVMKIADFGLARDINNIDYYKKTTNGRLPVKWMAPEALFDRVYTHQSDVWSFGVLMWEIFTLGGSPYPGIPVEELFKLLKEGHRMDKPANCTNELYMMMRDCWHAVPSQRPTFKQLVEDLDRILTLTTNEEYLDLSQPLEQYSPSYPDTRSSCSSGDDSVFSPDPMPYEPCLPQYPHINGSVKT
PROTOCOL: Kinase binding assay (kinase-tagged T7 phage, affinity beads, qPCR), Kd
CONDITION: read-out: FGFR2 (Kd nM)

MOLECULE	ASSAYED SYSTEM	Kd
C[C@@H](O)CNC1(C)CN(c2ncc(-c3n[nH]c4ccc(O[C@H](C)c5c(Cl)cncc5Cl)cc34)cc2C#N)C1 [Example 56]	FGFR2 (Homo sapiens, UniProt P21802)	1 to 50 nM
COc1cc2[nH]nc(-c3cc(C#N)c(N4CC(C)(NCC5CC5)C4)nn3)c2cc1O[C@H](C)c1c(Cl)cncc1Cl [Example 347]	FGFR2 (Homo sapiens, UniProt P21802)	1 to 50 nM
C[C@@H](Oc1ccc2[nH]nc(-c3cnc(N4CC(C)(C(=O)NCCO)C4)c(F)c3)c2c1)c1c(Cl)cncc1Cl [Example 162]	FGFR2 (Homo sapiens, UniProt P21802)	1 to 50 nM
Cc1ncc(Cl)c([C@@H](C)Oc2ccc3[nH]nc(-c4cnc(N5CC(C)(OC6CCC6)C5)c(C#N)c4)c3c2)c1Cl [Example 46]	FGFR2 (Homo sapiens, UniProt P21802)	> 1000 nM
COc1cc2[nH]nc(-c3cnc(N4CC(CC#N)(NCC5CC5)C4)c(C#N)c3)c2cc1O[C@H](C)c1c(Cl)cncc1Cl [Example 346]	FGFR2 (Homo sapiens, UniProt P21802)	1 to 50 nM
C[C@@H](Oc1ccc2[nH]nc(-c3ccc(N4CC(C)(N5CCP(C)(=O)CC5)C4)nc3)c2c1)c1c(Cl)cncc1Cl [Example 226]	FGFR2 (Homo sapiens, UniProt P21802)	1 to 50 nM
C[C@@H]1[C@@H](CS(C)(=O)=O)CN1c1ncc(-c2n[nH]c3ccc(O[C@H](C)c4c(Cl)cncc4Cl)cc23)cc1F [Example 207]	FGFR2 (Homo sapiens, UniProt P21802)	1 to 50 nM
COCCNC1(C)CN(c2ncc(-c3n[nH]c4ccc(O[C@H](C)c5c(Cl)cncc5Cl)cc34)cc2C#N)C1 [Example 88]	FGFR2 (Homo sapiens, UniProt P21802)	50 to 300 nM
C[C@@H](Oc1ccc2[nH]nc(-c3ccc(N4CC(C)(N5CC6CC(C5)O6)C4)nc3)c2c1)c1c(Cl)cncc1Cl [Example 222]	FGFR2 (Homo sapiens, UniProt P21802)	1 to 50 nM
C[C@@H](Oc1ccc2[nH]nc(-c3cnc(N4CC(C)(CS(C)(=O)=O)C4)c(F)c3)c2c1)c1c(Cl)cncc1Cl [Example 199]	FGFR2 (Homo sapiens, UniProt P21802)	1 to 50 nM
C[C@@H]1CN(C2(C)CN(c3ncc(-c4n[nH]c5ccc(O[C@H](C)c6c(Cl)cncc6Cl)cc45)cc3F)C2)CCO1 [Example 213]	FGFR2 (Homo sapiens, UniProt P21802)	1 to 50 nM
C[C@@H](Oc1ccc2[nH]nc(-c3cnc(N4CC(C)(NC5COC5)C4)c(C#N)c3)c2c1)c1c(Cl)cncc1Cl [Example 4]	FGFR2 (Homo sapiens, UniProt P21802)	50 to 300 nM
COc1cc2[nH]nc(-c3cnc(N4CCC4)c(F)c3)c2cc1O[C@H](C)c1c(Cl)cnc(C)c1Cl [Example 58]	FGFR2 (Homo sapiens, UniProt P21802)	1 to 50 nM
C[C@@H](Oc1cc2c(-c3cnc(N4CC(C)(CN5CCCC5)C4)c(C#N)c3)n[nH]c2cc1F)c1c(Cl)cncc1Cl [Example 317]	FGFR2 (Homo sapiens, UniProt P21802)	50 to 300 nM
C[C@@H](Oc1ccc2[nH]nc(-c3cnc(N4CC(C)(N5CCCC5)C4)c(C#N)c3)c2c1F)c1c(Cl)cncc1Cl [Example 322]	FGFR2 (Homo sapiens, UniProt P21802)	> 1000 nM
